# procedureText: Fraction unbound in mouse plasma
# Format: ADME, cell-free
reportedProperty: fraction unbound
Lab note: record just the number, no unit beside it.

According to the records, this compound Cc1nn(C)c(C)c1NS(=O)(=O)c1c(Cl)cc(-c2ccnc(N3CCNCC3)c2)cc1Cl displays fraction unbound of 0.11

====

# procedureText: Dissociation constant, pKa of the compound
# Type: physicochemical
reportedProperty: pKa
Output spec: single numeric token, no unit.

Some molecules with recorded pKa:
Cc1nn(C)c(C)c1NS(=O)(=O)c1ccc(NCCC2CCN(C)CC2)nc1 : 9.6
Cc1nn(C)c(C)c1NS(=O)(=O)c1ccc(NCCCn2ccnc2)nc1 : 7.1
Cc1nn(C)c(C)c1NS(=O)(=O)c1ccc(NCCN2CCN(C)CC2)nc1 : 7.9

Now look at this entry.
Looking up Cc1nn(C)c(C)c1NS(=O)(=O)c1ccc(NCCN2CCNCC2)nc1 , I see its pKa listed as 9.3

====

This section lists pIC50 readings for Glycylpeptide N-tetradecanoyltransferase 1 (Homo sapiens).
// returns pIC50 (minus log10 of molar concentration), number only

Worked set:
Cc1nn(C)c(C)c1NS(=O)(=O)c1ccc(NCCCN2CCN(C)CC2)nc1 : 5.62
Cc1nn(C)c(C)c1NS(=O)(=O)c1c(Cl)cc(-c2cccc3c2CCNC3)cc1Cl : 5.37
Cc1nn(C)c(C)c1NS(=O)(=O)c1ccc(NCCCn2ccnc2)nc1 : 5.06
Cc1nn(C)c(C)c1NS(=O)(=O)c1ccc(N2CCC(N3CCNCC3)C2)nc1 (configuration not stated) : 5.80
Cc1nn(C)c(C)c1NS(=O)(=O)c1ccc(NCc2ccc3[nH]ccc3c2)nc1 : 5.57

// moving on: another record for pIC50
Memo: Cc1nn(C)c(C)c1NS(=O)(=O)c1c(Cl)cc(-c2ccc(CN3CCN(C)CC3)cc2)cc1Cl , reported pIC50: 5.38

====

# testedSystem: Glycylpeptide N-tetradecanoyltransferase 1 (Homo sapiens, UniProt P30419)
# Sequence (P30419 whole entry): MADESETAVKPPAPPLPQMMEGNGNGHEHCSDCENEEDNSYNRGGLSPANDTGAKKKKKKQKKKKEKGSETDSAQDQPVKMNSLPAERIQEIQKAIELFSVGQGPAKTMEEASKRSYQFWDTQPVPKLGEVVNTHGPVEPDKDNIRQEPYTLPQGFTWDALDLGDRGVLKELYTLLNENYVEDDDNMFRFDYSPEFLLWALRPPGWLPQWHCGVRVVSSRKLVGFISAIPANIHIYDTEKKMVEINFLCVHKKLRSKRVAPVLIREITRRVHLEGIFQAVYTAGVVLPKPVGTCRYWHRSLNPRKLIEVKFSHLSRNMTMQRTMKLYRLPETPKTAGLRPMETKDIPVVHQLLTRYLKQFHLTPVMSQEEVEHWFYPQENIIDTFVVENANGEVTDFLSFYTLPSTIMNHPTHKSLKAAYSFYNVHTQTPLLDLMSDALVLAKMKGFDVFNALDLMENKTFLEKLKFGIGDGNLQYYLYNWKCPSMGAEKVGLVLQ
pIC50: −log10 of the molar value.
reportedProperty: pIC50

// known answers, use as guide
Cc1nn(C)c(C)c1NS(=O)(=O)c1ccc(NCCN2CCN(Cc3ccccc3)CC2)nc1 : < 5.00
Cc1nn(C)c(C)c1NS(=O)(=O)c1ccc(NCCN2CCN(C(=O)OC(C)(C)C)CC2)nc1 : < 5.00
Cc1nn(C)c(C)c1NS(=O)(=O)c1c(Cl)cc(-c2cccc3cnccc23)cc1Cl : < 4.00
Cc1nn(C)c(C)c1NS(=O)(=O)c1ccc(NCCN2CCN(c3ccccc3)CC2)nc1 : < 6.00
Cc1nn(C)c(C)c1NS(=O)(=O)c1ccc(NCCN2CCN(C(C)C)CC2)nc1 : < 6.00

// moving on: another record for pIC50
response.value for Cc1nn(C)c(C)c1NS(=O)(=O)c1ccc(Cl)nc1 (field: pIC50) = < 4.00
